Tested on: H2228 lung cancer cell line
Assay: High-throughput screening, CellTiter-Glo cell viability assay at 100 nM
Format: cell-based, human
Particulars: Homo sapiens, NCI-H2228, HTS, compounds at 100 nM, 72 h, read-out: cytotoxicity expressed in IC50, H2228 (results of High throughput screening)
pIC50: −log10 of the molar value.
Value kind: pIC50

Cc1ccccc1CN1C(=O)C2=C(CCN(Cc3cccc(C(F)(F)F)c3)C2)N2CCN=C12 = < 7.00
O=C1C2=C(CCN(Cc3ccccc3)C2)N2CCN=C2N1Cc1ccccc1I = < 7.00
O=C1C2=C(CCN(CC3CCNCC3)C2)N2CCN=C2N1Cc1ccc(F)cc1 = < 7.00
[N-]=[N+]=Nc1cccc(CN2CCC3=C(C2)C(=O)N(Cc2ccc(I)cc2)C2=NCCN23)c1 = > 7.00
NCc1cccc(CN2CCC3=C(C2)C(=O)N(Cc2ccc(C(F)(F)F)cc2)C2=NCCN23)c1 = < 7.00
O=C1C2=C(CCN(Cc3cccc(F)c3)C2)N2CCN=C2N1Cc1ccc(C(F)(F)F)c(F)c1 = > 7.00
COCCOc1cc2ncnc(Nc3cccc(-c4cn(-c5ccc(CN6CCC7=C(C6)C(=O)N(Cc6ccccc6C)C6=NCCN67)cc5)nn4)c3)c2cc1OCCOC = < 7.00
O=C1C2=C(CCN(Cc3cc(F)cc(F)c3)C2)N2CCN=C2N1Cc1ccc([N+](=O)[O-])cc1F = > 7.00

---

Test system: MDA-MB-231 (breast, adenocarcinoma) cells
Assay: Cell viability assay, CellTiter-Glo (Example 21)
Assay type: cell-based, human
Particulars: 300 nM, 72 h treatment
Value kind: MDA-MB-231 (breast, adenocarcinoma) cell viability (% of control)

O=C1C2=C(CCN(Cc3ccccc3)C2)N2CCN=C2N1Cc1ccc(C(F)(F)F)cc1 [I/1, reference compound] = 56.8 ± 2.1 % of control
O=C1C2=C(CCN(Cc3cccc(F)c3)C2)N2CCN=C2N1Cc1ccc(F)cc1 [I/6, reference compound] = 57.4 ± 1.7 % of control
[N-]=[N+]=Nc1cccc(CN2CCC3=C(C2)C(=O)N(Cc2ccc(C(F)(F)F)cc2)C2=NCCN23)c1 = 52.8 ± 2.7 % of control
O=C1C2=C(CCN(Cc3cccc(F)c3)C2)N2CCN=C2N1Cc1ccc(C(F)(F)F)cc1 [I/3, reference compound] = 53.7 ± 3.1 % of control
[N-]=[N+]=Nc1cccc(CN2CCC3=C(C2)C(=O)N(Cc2ccc(Cl)cc2)C2=NCCN23)c1 = 56.4 ± 3.5 % of control
O=C1C2=C(CCN(Cc3cc(F)cc(F)c3)C2)N2CCN=C2N1Cc1ccc(C(F)(F)F)cc1 = 52.6 ± 2.5 % of control
O=C1C2=C(CCN(Cc3cc(F)cc(F)c3)C2)N2CCN=C2N1Cc1ccc(F)cc1 = 59.4 ± 3.0 % of control
O=C1C2=C(CCN(Cc3cc(F)cc(F)c3)C2)N2CCN=C2N1Cc1ccc(Cl)cc1 = 54.2 ± 2.4 % of control
[N-]=[N+]=Nc1ccc(CN2C(=O)C3=C(CCN(Cc4cc(F)cc(F)c4)C3)N3CCN=C23)cc1 = 55.7 ± 0.9 % of control

---

Test system: MDA-MB-453 (breast, carcinoma) cells
Assay: Cell viability assay, CellTiter-Glo (Example 21)
Assay type: cell-based, human
Particulars: 11.1 nM, 72 h treatment
Value kind: MDA-MB-453 (breast, carcinoma) cell viability (% of control)

O=C1C2=C(CCN(Cc3cc(F)cc(F)c3)C2)N2CCN=C2N1Cc1ccc(C(F)(F)F)cc1 = 34.8 ± 3.3 % of control
O=C1C2=C(CCN(Cc3ccccc3)C2)N2CCN=C2N1Cc1ccc(C(F)(F)F)cc1 [I/1, reference compound] = 110.8 ± 2.3 % of control
[N-]=[N+]=Nc1ccc(CN2C(=O)C3=C(CCN(Cc4cc(F)cc(F)c4)C3)N3CCN=C23)cc1 = 47.8 ± 6.2 % of control
O=C1C2=C(CCN(Cc3cc(F)cc(F)c3)C2)N2CCN=C2N1Cc1ccc(F)cc1 = 35.8 ± 1.3 % of control
O=C1C2=C(CCN(Cc3cc(F)cc(F)c3)C2)N2CCN=C2N1Cc1ccc(Cl)cc1 = 33.5 ± 1.8 % of control
O=C1C2=C(CCN(Cc3cccc(F)c3)C2)N2CCN=C2N1Cc1ccc(C(F)(F)F)cc1 [I/3, reference compound] = 97.0 ± 13.3 % of control
O=C1C2=C(CCN(Cc3cccc(F)c3)C2)N2CCN=C2N1Cc1ccc(F)cc1 [I/6, reference compound] = 103.7 ± 10.4 % of control
[N-]=[N+]=Nc1cccc(CN2CCC3=C(C2)C(=O)N(Cc2ccc(C(F)(F)F)cc2)C2=NCCN23)c1 = 45.7 ± 5.0 % of control
[N-]=[N+]=Nc1cccc(CN2CCC3=C(C2)C(=O)N(Cc2ccc(Cl)cc2)C2=NCCN23)c1 = 50.1 ± 10.6 % of control

---

Collected MIA PaCa-2 (pancreas, carcinoma) cell viability (% of control) values appear next to each entry.
Test system: MIA PaCa-2 (pancreas, carcinoma) cells
Assay: Cell viability assay, CellTiter-Glo (Example 21)
Type: cell-based, human
Particulars: 300 nM, 72 h treatment
Value kind: MIA PaCa-2 (pancreas, carcinoma) cell viability (% of control)

[N-]=[N+]=Nc1cccc(CN2CCC3=C(C2)C(=O)N(Cc2ccc(C(F)(F)F)cc2)C2=NCCN23)c1 [I/111] = 16.2 ± 6.9 % of control
[N-]=[N+]=Nc1cccc(CN2CCC3=C(C2)C(=O)N(Cc2ccc(Cl)cc2)C2=NCCN23)c1 [I/133] = 17.4 ± 7.9 % of control
[N-]=[N+]=Nc1ccc(CN2C(=O)C3=C(CCN(Cc4cc(F)cc(F)c4)C3)N3CCN=C23)cc1 [I/107] = 17.4 ± 7.1 % of control
O=C1C2=C(CCN(Cc3ccccc3)C2)N2CCN=C2N1Cc1ccc(C(F)(F)F)cc1 [I/1, reference compound] = 17.3 ± 8.8 % of control
O=C1C2=C(CCN(Cc3cccc(F)c3)C2)N2CCN=C2N1Cc1ccc(C(F)(F)F)cc1 [I/3, reference compound] = 17.2 ± 7.5 % of control

---

Tested on: MDA-MB-453 (breast, carcinoma) cells
Assay: Cell viability assay, CellTiter-Glo (Example 21)
Assay type: cell-based, human
Particulars: 3.7 nM, 72 h treatment
Value kind: MDA-MB-453 (breast, carcinoma) cell viability (% of control)

O=C1C2=C(CCN(Cc3cc(F)cc(F)c3)C2)N2CCN=C2N1Cc1ccc(Cl)cc1 [I/124] = 37.9 ± 3.2 % of control
[N-]=[N+]=Nc1ccc(CN2C(=O)C3=C(CCN(Cc4cc(F)cc(F)c4)C3)N3CCN=C23)cc1 [I/107] = 107.2 ± 9.1 % of control
O=C1C2=C(CCN(Cc3cc(F)cc(F)c3)C2)N2CCN=C2N1Cc1ccc(F)cc1 [I/7] = 55.8 ± 6.5 % of control
O=C1C2=C(CCN(Cc3cccc(F)c3)C2)N2CCN=C2N1Cc1ccc(F)cc1 [I/6, reference compound] = 113.6 ± 9.8 % of control
O=C1C2=C(CCN(Cc3cccc(F)c3)C2)N2CCN=C2N1Cc1ccc(C(F)(F)F)cc1 [I/3, reference compound] = 110.3 ± 7.7 % of control
[N-]=[N+]=Nc1cccc(CN2CCC3=C(C2)C(=O)N(Cc2ccc(Cl)cc2)C2=NCCN23)c1 [I/133] = 108.6 ± 19.7 % of control
O=C1C2=C(CCN(Cc3cc(F)cc(F)c3)C2)N2CCN=C2N1Cc1ccc(C(F)(F)F)cc1 [I/30] = 58.0 ± 24.4 % of control
[N-]=[N+]=Nc1cccc(CN2CCC3=C(C2)C(=O)N(Cc2ccc(C(F)(F)F)cc2)C2=NCCN23)c1 [I/111] = 107.2 ± 5.9 % of control
O=C1C2=C(CCN(Cc3ccccc3)C2)N2CCN=C2N1Cc1ccc(C(F)(F)F)cc1 [I/1, reference compound] = 111.0 ± 7.3 % of control

---

Tested on: LNCaP (prostate, carcinoma) cells
Assay: Cell viability assay, CellTiter-Glo (Example 21)
Assay type: cell-based, human
Particulars: 100 nM, 72 h
Value kind: LNCaP cell viability

O=C1C2=C(CCN(Cc3cc(F)cc(F)c3)C2)N2CCN=C2N1Cc1ccc(F)cc1 [I/7] = 13.1 ± 0.8 % of control
[N-]=[N+]=Nc1ccc(CN2C(=O)C3=C(CCN(Cc4cc(F)cc(F)c4)C3)N3CCN=C23)cc1 [I/107] = 13.5 ± 0.7 % of control
[N-]=[N+]=Nc1cccc(CN2CCC3=C(C2)C(=O)N(Cc2ccc(Cl)cc2)C2=NCCN23)c1 [I/133] = 12.3 ± 1.1 % of control
[N-]=[N+]=Nc1cccc(CN2CCC3=C(C2)C(=O)N(Cc2ccc(C(F)(F)F)cc2)C2=NCCN23)c1 [I/111] = 11.8 ± 0.7 % of control
